- Assay overview: compounds altering RPL19A-GFP fluorescence, TOR branch – cell-based, S. cerevisiae, multiplex flow cytometry, MLPCN, primary screen (AID 2025);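 note: median channel GFP fluorescence of the barcoded RPL19A-GFP strain; ratio of sample median GFP to plate DMSO average so 100% = DMSO; lower means less RPL19A-GFP as with rapamycin TOR inhibition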
- Run parameters: S. cerevisiae RPL19A-GFP strain, 3 h, at 10 µM
Among all 330,000 compounds or so, about 980 (0.3%) were called active.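 Rule for the calls: active = percent response vs DMSO below 50%; inconclusive = fewer than 70 events counted for the yeast strain; inactive = the rest.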 Many of the other results were omitted from the sample, so actives are more common in it than they were.
Pick one and only one: class 1 = active, class 0 = inactive

1. O=C(CSc1ncccn1)NCCc1ccccc1 : class 0
2. CC(C)(C)NC(=O)CN(Cc1cccs1)C(=O)CNS(=O)(=O)c1ccccc1 : class 0
3. Cn1ccs/c1=N\S(=O)(=O)c1ccc(C(C)(C)C)cc1 : class 1
4. Cc1cc2c(cc1C)N(Cc1ccccc1)C1=NCCCN12 : class 0
5. Cc1ccc(C(=O)Nc2c(C#N)c(C)c(C)n2Cc2ccccc2)cc1 : class 1

Query: Which outcome was entered for the molecule CCCCCC(O)c1cccc(OCc2ccc3ccccc3n2)c1 (stereo not drawn) in this test?
Result: class 0

Query: // param item: Cc1c(C#N)c(NC(=O)c2ccccc2)n(Cc2ccccc2)c1C ; yields the recorded call
Result: class 0

Query: What did this assay record as the result for CCC(Oc1ccccc1)C(=O)NCc1cccnc1 (stereo not drawn) ?
Result: class 0

Query: recorded result category for Cc1ccc(C2SCC(=O)N2c2ccccc2)cc1 (stereo not drawn) in this test
Result: class 0

Query: Write down the call the test reported for this molecule. Item: CN(CCc1cnn(C)c1)Cc1cn(C)nc1-c1ccccc1F
Result: class 0

Query: Record request — test call for COc1ccc(CN2CC(C(=O)NCCc3ccc(Cl)cc3)CC2=O)cc1 (stereo not drawn)
Result: class 1
